Origin of measurements: ChEMBL document CHEMBL5291721

assay_target: UniProt:P32238
Sequence (P32238 whole entry): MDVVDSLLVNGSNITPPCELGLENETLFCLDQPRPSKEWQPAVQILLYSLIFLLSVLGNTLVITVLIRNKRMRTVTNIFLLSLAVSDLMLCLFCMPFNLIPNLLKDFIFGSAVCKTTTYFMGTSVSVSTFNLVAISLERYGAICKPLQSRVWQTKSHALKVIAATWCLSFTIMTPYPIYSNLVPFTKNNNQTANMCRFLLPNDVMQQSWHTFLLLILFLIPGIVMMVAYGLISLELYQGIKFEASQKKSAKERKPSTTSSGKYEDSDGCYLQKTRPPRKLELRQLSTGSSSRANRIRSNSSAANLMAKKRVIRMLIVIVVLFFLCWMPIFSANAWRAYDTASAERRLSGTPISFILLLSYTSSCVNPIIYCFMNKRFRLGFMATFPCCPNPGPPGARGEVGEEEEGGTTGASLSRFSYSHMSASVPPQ
outcome_measure: AC50

Answered cases to consult:
compound: C[C@H](CCC(=O)O)[C@H]1CC[C@H]2[C@@H]3[C@@H](O)C[C@@H]4C[C@H](O)CC[C@]4(C)[C@H]3CC[C@]12C
AC50: > 30 µM
//
compound: OCc1cc(C(O)CNCCCCCCOCCCCc2ccccc2)ccc1O (centres undefined)
AC50: > 30 µM
//
compound: Oc1ccc2c(c1)CC[C@H](c1ccccc1)[C@@H]2c1ccc(OCCN2CCCC2)cc1
AC50: > 3 µM

Let us examine a further case.
# AC50 lookup, item C[C@@H](NCCCc1cccc(C(F)(F)F)c1)c1cccc2ccccc12
> 30 µM

----------
Measured AC50, listed per entry.
assay_target: Beta-2 adrenergic receptor (Homo sapiens, UniProt P07550); further: assay procedure not described here
Sequence (P07550 whole entry): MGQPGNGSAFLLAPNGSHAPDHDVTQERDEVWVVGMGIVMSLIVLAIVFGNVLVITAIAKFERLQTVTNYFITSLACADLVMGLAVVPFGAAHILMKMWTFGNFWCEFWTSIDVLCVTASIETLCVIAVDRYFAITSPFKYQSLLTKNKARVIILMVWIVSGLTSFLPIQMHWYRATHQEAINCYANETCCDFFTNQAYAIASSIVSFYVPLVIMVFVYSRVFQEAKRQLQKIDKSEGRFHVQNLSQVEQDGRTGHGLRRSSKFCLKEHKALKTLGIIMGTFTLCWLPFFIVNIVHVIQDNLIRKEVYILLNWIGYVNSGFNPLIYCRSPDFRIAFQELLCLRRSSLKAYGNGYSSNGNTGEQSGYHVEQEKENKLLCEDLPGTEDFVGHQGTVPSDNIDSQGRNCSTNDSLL

Sample answers from the record:
molecule: CCN(CC)C(=O)Nc1ccc(OCC(O)CNC(C)(C)C)c(C(C)=O)c1 (configuration not stated) [CELIPROLOL]
assay_target: Beta-2 adrenergic receptor (Homo sapiens, UniProt P07550); further: assay procedure not described here
AC50: 4.6 µM

molecule: Cc1cc(C(C)(C)C)cc(C)c1CC1=NCCN1 [XYLOMETAZOLINE]
assay_target: Beta-2 adrenergic receptor (Homo sapiens, UniProt P07550); further: assay procedure not described here
AC50: > 30 µM

molecule: CCN(CC)CCN1C(=O)CN=C(c2ccccc2F)c2cc(Cl)ccc21 [FLURAZEPAM]
assay_target: Beta-2 adrenergic receptor (Homo sapiens, UniProt P07550); further: assay procedure not described here
AC50: > 10 µM

molecule: C=C[C@@]1(C)CC(=O)[C@]2(O)[C@@]3(C)[C@@H](O)CCC(C)(C)[C@@H]3[C@H](O)[C@H](OC(C)=O)[C@@]2(C)O1 [COLFORSIN]
assay_target: Beta-2 adrenergic receptor (Homo sapiens, UniProt P07550); further: assay procedure not described here
AC50: > 30 µM

molecule: CCCCCC(=O)O[C@]1(C(C)=O)CC[C@H]2[C@@H]3CCC4=CC(=O)CC[C@]4(C)[C@H]3CC[C@@]21C [HYDROXYPROGESTERONE CAPROATE]
assay_target: Beta-2 adrenergic receptor (Homo sapiens, UniProt P07550); further: assay procedure not described here
AC50: > 30 µM

Lookup: AC50 / Beta-2 adrenergic receptor (Homo sapiens, UniProt P07550) / CN(C)CCCNc1c2ccccc2nc2cccc([N+](=O)[O-])c12 [NITRACRINE]
> 30 µM

Lab request: please report AC50 under test system Beta-2 adrenergic receptor (Homo sapiens, UniProt P07550) for C[N@+]1(CCF)[C@@H]2CC[C@H]1C[C@@H](OC(=O)C(O)(c1ccccc1)c1ccccc1)C2; further: assay procedure not described here
> 30 µM

Fill in the recorded AC50 for this molecule, with Beta-2 adrenergic receptor (Homo sapiens, UniProt P07550) as test system: CC(=O)[C@@]1(O)CC[C@H]2[C@@H]3C=C(Cl)C4=CC(=O)[C@@H]5C[C@@H]5[C@]4(C)[C@H]3CC[C@@]21C [CYPROTERONE]
> 10 µM

What AC50 appears in the records for this molecule with Beta-2 adrenergic receptor (Homo sapiens, UniProt P07550)? COc1ccc2nc3cc(Cl)ccc3c(Nc3cc(CN4CCCC4)c(O)c(CN4CCCC4)c3)c2n1 [PYRONARIDINE]
> 30 µM

Value wanted: AC50 (Beta-2 adrenergic receptor (Homo sapiens, UniProt P07550)) of entry Cn1c(=O)cc(N2CCC[C@@H](N)C2)n(Cc2ccccc2C#N)c1=O [ALOGLIPTIN]
> 10 µM

What reported AC50 corresponds to CCCCCCCCCCCCCCCCCCCCCC(=O)Nc1ccn([C@@H]2O[C@H](CO)[C@@H](O)[C@@H]2O)c(=O)n1 [ENOCITABINE] on Beta-2 adrenergic receptor (Homo sapiens, UniProt P07550)?
> 30 µM

Quick check: AC50 on Beta-2 adrenergic receptor (Homo sapiens, UniProt P07550), item N[C@@H](CC(=O)N1CCn2c(nnc2C(F)(F)F)C1)Cc1cc(F)c(F)cc1F [SITAGLIPTIN] ?
> 10 µM
